Test system: Thymidylate synthase (Homo sapiens)
Sequence (P04818 2-313 limits assumed): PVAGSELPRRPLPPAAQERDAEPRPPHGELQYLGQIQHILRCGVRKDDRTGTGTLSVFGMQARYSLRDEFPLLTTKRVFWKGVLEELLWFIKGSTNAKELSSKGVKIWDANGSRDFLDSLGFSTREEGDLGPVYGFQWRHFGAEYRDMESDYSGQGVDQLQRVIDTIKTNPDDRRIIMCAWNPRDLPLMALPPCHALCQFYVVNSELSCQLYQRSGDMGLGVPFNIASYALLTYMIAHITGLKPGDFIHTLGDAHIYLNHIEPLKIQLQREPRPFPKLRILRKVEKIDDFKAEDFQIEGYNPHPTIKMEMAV
Assay notes: Fold increase of inhibition of human thymidylate synthase from that of control
Property: Fold increase

Compound: C#CCN(Cc1ccc2nc(N)nc(O)c2c1)c1ccc(C(=O)NC(CCC(=O)NC(CCC(=O)NC(CCC(=O)NC(CCC(=O)O)C(=O)O)C(=O)O)C(=O)O)C(=O)O)cc1 (centres undefined)
Fold increase: 171

(I) C#CCN(Cc1ccc2nc(N)nc(O)c2c1)c1ccc(C(=O)NC(CCC(=O)NC(CCC(=O)NC(CCC(=O)O)C(=O)O)C(=O)O)C(=O)O)cc1 (centres undefined)
(II) C#CCN(Cc1ccc2nc(N)nc(O)c2c1)c1ccc(C(=O)NC(CCC(=O)NC(CCC(=O)NC(CCC(=O)NC(CCC(=O)NC(CCC(=O)O)C(=O)O)C(=O)O)C(=O)O)C(=O)O)C(=O)O)cc1 (centres undefined)
(III) C#CCN(Cc1ccc2nc(N)nc(O)c2c1)c1ccc(C(=O)NC(CCC(=O)NC(CCC(=O)O)C(=O)O)C(=O)O)cc1 (centres undefined)
Request: With regard to Fold increase, arrange the entries in ascending order, please. Answer format: the labels, ordered as requested.
Response: III, I, II
